- System: LOX IMVI melanoma
- Test: NCI tumour cell line growth inhibition, 48 h
Value kind: TGI

TGI in this record for [N-]=[N+]=Nc1ccc2c(c1)Sc1ccccc1N2CCCCCl : > 100 µM

TGI in this record for COC(=O)c1ccc(N=NN(C)CO)cc1 : > 100 µM

TGI in this record for O=C(O)CN1CCN(CC(=O)O)CCN(CC(=O)O)CCN(CC(=O)O)CC1 : > 100 µM

TGI in this record for [C-]#[O+].[C-]#[O+].[Ir].[O-]c1cccc2cccnc12 : > 100 µM

TGI in this record for CC1NOC(=O)C1N=Nc1ccccc1Cl (stereo not drawn) : > 100 µM

TGI in this record for O=[N+]([O-])c1cccc2nccc(NCC(O)CO)c12 (stereo not drawn) : 54.7 µM

TGI in this record for CN(C)CCO/N=C1/C=C2CC[C@H]3[C@@H]4CC[C@H](O)[C@@]4(C)CC[C@@H]3[C@@]2(C)CC1 : 60.2 µM

TGI in this record for CC1C[C@]2(C)C(=S)Nc3ccccc3[C@@H]2Nc2ccccc21 (stereo partly drawn) : 28.5 µM

----------
- Test system: DU-145 prostate
- Test: NCI tumour cell line growth inhibition, 48 h
Value kind: TGI

TGI in this record for COC(=O)C1(O)c2ccccc2N=C2C(=O)c3ccccc3N21 (centres undefined) : > 100 µM

TGI in this record for Cc1[nH]c(/C=C2\C(=O)Nc3ccc(F)cc32)c(C)c1C(=O)NC[C@H](O)CN1CCOCC1 : > 10 µM

TGI in this record for COC(=O)/C(=C\c1c(C)[nH]c2ccccc12)S(=O)(=O)c1ccccc1 : 8.01 µM

TGI in this record for C/C=C(/C)C(=O)O[C@H]1C(C)=C[C@]23C(=O)[C@@H](C=C(COC(C)=O)[C@@H](O)[C@]12O)[C@H]1[C@@H](C[C@H]3C)[C@@]1(C)OC(=O)/C(C)=C\C : 6.21 µM

TGI in this record for CCCCCCCCCCCCCCCCP(=O)(O)OP(=O)(O)OCC1OC(n2cnc3c(N)ncnc32)C(O)C1O (centres undefined) : > 100 µM

TGI in this record for CC1(O)/C(=N/O)CC2CC1C2(C)C (centres undefined) : > 100 µM

TGI in this record for CC(=O)c1ccc2c(c1)oc(=O)n2CCN1CCCCC1 : > 100 µM

TGI in this record for O=C1OC(=O)C2C1C1(c3ccccc3)C(c3ccccc3)=C(c3ccccc3)C2(c2ccccc2)S1=O (centres undefined) : > 100 µM

TGI in this record for CN(C)CCO/N=C1/C=C2CC[C@H]3[C@@H]4CC[C@H](O)[C@@]4(C)CC[C@@H]3[C@@]2(C)CC1 : 45.9 µM

TGI in this record for COc1nc(C)cc2c(=O)n(-c3ccccc3)n(CCCN3CCN(c4ccc(Cl)cc4)CC3)c(=O)c12 : > 50 µM

TGI in this record for Cc1ccc(S(=O)(=O)NNC(=S)Nc2cccc3ccccc23)cc1 : > 100 µM

TGI in this record for CC1C[C@]2(C)C(=S)Nc3ccccc3[C@@H]2Nc2ccccc21 (some centres undefined) : 17.5 µM

TGI in this record for CCN(CC)CCCCCCCNc1c2ccc(Cl)cc2nc2ccc(OC)cc12 : 2 µM

TGI in this record for CC1(C)OCC(C2OC(N3O[C@H](CI)C[C@@H]3c3ccccc3)C3OC(C)(C)OC23)O1 (some centres undefined) : > 100 µM

TGI in this record for C/C=C(\C)C(=O)O[C@H]1C=CC(=O)O[C@H]1CNC(=O)[C@H](C)O : > 100 µM

TGI in this record for O=C(NC(=S)Nc1ccc(Cl)cc1)c1ccccc1 : > 100 µM

TGI in this record for NC1=NC(OCC2(CO)CCC2)C=C(NCC2(CO)CCC2)N1 (centres undefined) : > 100 µM

TGI in this record for CCN(CC)CCOc1ccc(/C=C2\CC3C4CC=C5C[C@@H](N6CCCC6)CC[C@]5(C)C4CC[C@]3(C)[C@H]2O)cc1OC (some centres undefined) : 34.7 µM

TGI in this record for C[Si](C)(C)OC1c2[nH]c3ccccc3c2CN2C(=O)CCC12 (centres undefined) : > 100 µM
